The reported measurements were obtained from patent US20120178682A1.

Molecular target: D-VEGF
Experiment: SPR affinity measurements of GB1 peptidic compounds on immobilized D-VEGF
Format: binding
Details: Table 1; target D-VEGF
pKd: −log10 of the molar value.
Label rule, in plain words: pKd of 8 and up is Condition met, under 8 is Condition not met.

Please review the following examples before continuing.
{"MOLECULE": "E01-V22L: E01 point mutant V22L, His-tagged, expressed in E. coli (protein) MKIEEHHHHHHHHHHGGSTYKLILNGKTLKGETTTEAVDLYDAFDVFFVYAASNFSDFDDWTYDDATKTFTVTEGGSDK", "CLASS ASSIGNMENT": "Condition met"}
{"MOLECULE": "E01-D41V: E01 point mutant D41V (protein) MKIEEHHHHHHHHHHGGSTYKLILNGKTLKGETTTEAVDVYDAFDVFFVYAASNFSDFVDWTYDDATKTFTVTEGGSDK", "CLASS ASSIGNMENT": "Condition not met"}

Attention now shifts to the item below.
Textbook exercise: given the entry E01-D39F: E01 point mutant D39F; scaffold for double mutants (protein) MKIEEHHHHHHHHHHGGSTYKLILNGKTLKGETTTEAVDVYDAFDVFFVYAASNFSFFDDWTYDDATKTFTVTEGGSDK , state whether its pKd is greater than or equal to 8.
Condition met
